Tested on: MDR1-MDCK cell monolayers
assay.overview: MDR1/MDCK assay (blood-brain barrier penetration potential)
Format: in vitro ADME
experimental.conditions: 5 μM, pH 7.4, 120 minutes
measurement.kind: MDCK permeability (MDR1-MDCK); Mean; Papp Ratio (B − A/A − B) (efflux ratio)

// below: answered compounds
CC(C)(C)Cc1[nH]nc2c1C(C)(c1cccc(N3CCOCC3)c1)C1=C(CC(C)(C)CC1=O)N2 (stereo not drawn); 119
Cn1cc(-c2cccc(C3(C)C4=C(CC(C)(C)CC4=O)Nc4n[nH]c(CC(C)(C)C)c43)c2)cn1 (stereo not drawn); 92.5
CC(C)(C)Cc1[nH]nc2c1C(C)(c1cc(S(C)(=O)=O)ccc1F)C1=C(CC(C)(C)CC1=O)N2 (stereo not drawn); 301

[a] Cn1cncc1-c1cccc(C2(C)C3=C(CC(C)(C)CC3=O)Nc3n[nH]c(CC(C)(C)C)c32)c1 (stereo not drawn)
[b] CN1CC2(C3=C(CC(C)(C)CC3=O)Nc3n[nH]c(C4CC(F)(F)C4)c32)c2ccccc21 (stereo not drawn)
Return label of the item with the larger MDCK permeability (MDR1-MDCK); Mean; Papp Ratio (B − A/A − B) (efflux ratio). Candidates: a , b . Answer by stating the label of the chosen item.
a
(a: 187, b: 42.3)

[P] C[S+]([O-])c1cccc(C2(C)C3=C(CC(C)(C)CC3=O)Nc3n[nH]c(CC(C)(C)C)c32)c1 (stereo not drawn)
[Q] CC(C)(C)Cc1[nH]nc2c1C(C)(c1cccc(S(=O)(=O)C(F)(F)F)c1)C1=C(CC(C)(C)CC1=O)N2 (stereo not drawn)
# compare MDCK permeability (MDR1-MDCK); Mean; Papp Ratio (B − A/A − B) (efflux ratio) for P vs Q ; return the one with the smaller value // return label of chosen record
Q

[P] CN1CC2(C3=C(CC(C)(C)CC3=O)Nc3n[nH]c(CC(C)(C)C)c32)c2ccccc21 (stereo not drawn)
[Q] CN(C)S(=O)(=O)c1cccc(C2(C)C3=C(CC(C)(C)CC3=O)Nc3n[nH]c(CC(C)(C)C)c32)c1 (stereo not drawn)
Among P and Q , which shows a numerically higher MDCK permeability (MDR1-MDCK); Mean; Papp Ratio (B − A/A − B) (efflux ratio) result? Write down the label attached to your selection.
Q
(Q: 120, P: 7.49)

###

Each entry below carries its reported pIC50.
experimental.system: GSK3b (GST-full length GSK3b) (Homo sapiens (Human), UniProt P49841)
Sequence (P49841 whole entry): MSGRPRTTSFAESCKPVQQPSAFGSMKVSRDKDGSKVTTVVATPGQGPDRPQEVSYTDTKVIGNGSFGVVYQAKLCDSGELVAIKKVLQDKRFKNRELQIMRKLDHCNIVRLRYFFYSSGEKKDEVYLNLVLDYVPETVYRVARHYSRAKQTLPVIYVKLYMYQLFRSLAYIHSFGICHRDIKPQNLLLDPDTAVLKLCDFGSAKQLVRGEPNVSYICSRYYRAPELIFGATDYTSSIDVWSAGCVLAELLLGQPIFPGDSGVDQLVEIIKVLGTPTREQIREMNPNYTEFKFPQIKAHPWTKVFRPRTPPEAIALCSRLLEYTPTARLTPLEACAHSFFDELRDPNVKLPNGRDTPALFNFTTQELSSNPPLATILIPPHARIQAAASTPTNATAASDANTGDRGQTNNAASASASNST
assay.overview: GSK3b TR-FRET kinase assay
Format: biochemical
experimental.conditions: 1 nM GSK3b, 2 μM ATP, 30 minute preincubation; read-out: GSK3-B TR-FRET BIOCHEMICAL (TR-FRET); IC50
pIC50: −log10 of the molar value.

Example compounds with recorded pIC50:
Cc1ccc(C(=O)N2CC3(C2)CC2(CO3)C3=C(CC(C)(C)CC3=O)Nc3n[nH]cc32)cc1C (stereo not drawn); ≥ 7.00
Cc1ccc(CC(=O)N2CC3(C2)CC2(CO3)C3=C(CC(C)(C)CC3=O)Nc3n[nH]cc32)cc1 (stereo not drawn); ≥ 7.00
CCC1(c2cccc(-c3ccnc(C)c3C)c2)C2=C(CC(C)(C)NC2=O)Nc2n[nH]cc21 (stereo not drawn); 6.00 to 7.00
CCC1(c2cccc(-c3cnn(C)c3)c2)C2=C(CC(C)(C)NC2=O)Nc2n[nH]c(C)c21 (stereo not drawn) [Compound 944027]; 6.00 to 7.00

GET /values?readout=pIC50&item= CC1(C)CC(=O)C2=C(C1)Nc1n[nH]cc1[C@]21CCN(S(=O)(=O)c2ccccc2F)C1
≥ 7.00

Please give the measured pIC50 for this compound: CC(C)S(=O)(=O)N1CCC2(CC1)C1=C(Nc3n[nH]cc32)[C@H](F)C(C)(C)CC1=O
≥ 7.00

Sample CC[C@]1(c2cccc(C(F)(F)F)c2)C2=C(Nc3n[nH]cc31)[C@H](C)CNC2=O — what was its pIC50?
< 5.30

Would you kindly share the measured pIC50 for CCC1(c2cccc(-c3c(C)nn(C)c3C)c2)C2=C(CC(C)(C)NC2=O)Nc2n[nH]cc21 (stereo not drawn) ?
≥ 7.00

Which pIC50 value is on record for CC1(C)CC(=O)C2=C(C1)Nc1n[nH]cc1C21COC2(CN(C(=O)C(F)F)C2)C1 (stereo not drawn) ?
≥ 7.00

Which measured pIC50 value corresponds to CC1(C)CC(=O)C2=C(C1)Nc1n[nH]cc1C21COC2(CN(C(=O)C3(C)CCCC3)C2)C1 (stereo not drawn) ?
≥ 7.00

What does the record list as pIC50 for CCC1(c2cccc(C(F)(F)F)c2)C2=C(CCN(Cc3ccccc3)C2=O)Nc2n[nH]cc21 (stereo not drawn) ?
< 5.30

Which pIC50 value belongs to CCC1(c2cccc(C(F)(F)F)c2)C2=C(CCN(c3ccccc3)C2=O)Nc2n[nH]cc21 (stereo not drawn) ?
6.00 to 7.00

Any idea what pIC50 was measured for CC[C@]1(c2cccc(-c3cnn(C)c3C)c2)C2=C(CC(C)(C)NC2=O)Nc2n[nH]c(C)c21 ?
< 5.30

Need pIC50, item CC[C@]1(c2cccc(C(F)(F)F)c2)C2=C(CCN(Cc3ccccc3)C2=O)Nc2n[nH]cc21
< 5.30

Query (compound): CC(=O)N1C[C@@]2(C[C@]3(CO2)C2=C(CC(C)(C)CC2=O)Nc2n[nH]cc23)[C@@H]1C ; field requested: pIC50
≥ 7.00
